Reported Viability values are given for each entry in this list.
# Tested on: C2C12 myotubes
# condition.parameters: composite Z-score vs mock-treated (DMSO) wells; concentration of each compound in μM

>  <compound>
C[C@@H]1[C@H](O)[C@@H](C)/C=C/C=C/CC/C=C/C=C/C=C/C=C/C(O[C@H]2O[C@H](C)[C@@H](O)[C@H](N)[C@@H]2O)CC2O[C@](O)(CC(O)C(O)CCC(O)CC(O)CC(O)CC(=O)O[C@H]1C)CC(O)C2C(=O)O (stereo partly drawn)

>  <Viability>
−0.430

$$$$
>  <compound>
C=Cc1c(C)c2cc3nc(c4c5[n-]c(cc6nc(cc1[n-]2)C(C)=C6CC)c(C)c5C(=O)[C@@H]4C(=O)OC)[C@@H](CCC(=O)O)[C@@H]3C.[Mg+2] [chlorophyllide]

>  <Viability>
−0.178

$$$$
>  <compound>
COc1cc2c(cc1OC)-c1cc3ccc(OC)c(OC)c3c[n+]1CC2 [Palmatine, reference compound]

>  <Viability>
−1.028

$$$$
